# Test system: J774
# procedureDetails: Cytotoxicity against J774 cells is the dose giving 50% decrease in the formation of formazan dye
# Assay type: functional, cell-based
# experimentalSetup: Mus musculus
measuredMetric: IC50 (nM)
Output spec: scalar in nM, unitless text.

State the recorded IC50 for this entry: Cc1csc2ncnc(NCCc3ccc(Cl)cc3)c12
5
